Provenance of the data: ChEMBL document CHEMBL6182926

Tested on: Cryptococcus neoformans
Test protocol: Antifungal activity against Cryptococcus neoformans CGMCC 2.3161 assessed as inhibition of visible growth
Format: functional
Property name: MIC80 (µg/mL)
Kindly provide the numeric value in µg/mL only, without the unit symbol.

## Input If you can, please state the reported MIC80 value of CN(Cc1cnc(-c2ccc(C(F)(F)F)cc2)s1)CC(O)(Cn1cncn1)c1ccc(F)cc1F (stereo not drawn) .
## Output 0.4

## Input // same read-out, input: CN(Cc1ccc(-c2ccc(Cl)cc2)cc1)CC(O)(Cn1cncn1)c1ccc(F)cc1F (stereo not drawn)
## Output 0.012

## Input // same read-out, input: CN(Cc1ccc(-c2ccc(C(F)(F)F)cc2)nc1)CC(O)(Cn1cncn1)c1ccc(F)cc1F (stereo not drawn)
## Output 0.025
